The following compounds are listed with their measured IC50 values.
# System: Hs578T complex spheroid growth, percent test/control
# protocolDetails: Anticancer human tumor Hs578T cell line growth inhibition [AhR];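 further: luminescent viability signal as a proxy for spheroid growth; spheroids exposed to agents for one week after three days of growth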
# cond: curve of first compound; second compound 1 µM

These recorded examples may help you get a feel for the data.
>>> result("Cn1ncnc1C1c2n[nH]c(=O)c3cc(F)cc(c23)NC1c1ccc(F)cc1 (configuration not stated) + Cc1ccccc1N=Nc1ccc(NC(=O)c2ccnn2C)c(C)c1")
"> 0.1 µM"
>>> result("Nc1ncn(C2CC(O)C(CO)S2)c(=O)n1 (configuration not stated) + CC(CO)NC(=O)c1cc(-c2ccc(Cl)cc2)nn(-c2cnn(C)c2)c1=O")
"> 0.3 µM"

Quick one: IC50 for CC(C)c1c(-c2ccccc2)nc2c(C#N)c[nH]n2c1=O + CC(CO)NC(=O)c1cc(-c2ccc(Cl)cc2)nn(-c2cnn(C)c2)c1=O ? > 10 µM

What IC50 value was documented for this compound, CC(C)c1c(-c2ccccc2)nc2c(C#N)c[nH]n2c1=O + Cc1ccccc1N=Nc1ccc(NC(=O)c2ccnn2C)c(C)c1 ? > 10 µM

For the compound COc1cc(C2c3cc4c(cc3C(OC3OC5COC(C)OC5C(O)C3O)C3COC(=O)C23)OCO4)cc(OC)c1O (configuration not stated) + Cc1ccccc1N=Nc1ccc(NC(=O)c2ccnn2C)c(C)c1 , what IC50 is on record? > 10 µM

For the compound shown here, CC1(C)CCC(CN2CCN(c3ccc(C(=O)NS(=O)(=O)c4ccc(NCC5CCOCC5)c([N+](=O)[O-])c4)c(Oc4cnc5[nH]ccc5c4)c3)CC2)=C(c2ccc(Cl)cc2)C1 + Cc1cncc(-c2nc(NCCc3c[nH]c4ccccc34)c3ncn(C(C)C)c3n2)c1 , give the reported IC50. > 10 µM

What measured IC50 goes with COc1cc(C2c3cc4c(cc3C(OC3OC5COC(C)OC5C(O)C3O)C3COC(=O)C23)OCO4)cc(OC)c1O (configuration not stated) + Cc1cncc(-c2nc(NCCc3c[nH]c4ccccc34)c3ncn(C(C)C)c3n2)c1 ? > 10 µM

---

# Tested on: Hs578T complex spheroid growth, percent test/control
# protocolDetails: Anticancer human tumor Hs578T cell line growth inhibition [AhR];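 further: luminescent viability signal as a proxy for spheroid growth; spheroids exposed to agents for one week after three days of growth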
# cond: second compound 1 µM; first compound 0.3 µM; stronger effect = lower value
measuredAttribute: viability, T/C (%)
Your answer is read as %, so omit the unit and give the number.

>>> number("CCN(c1cc(-c2ccc(CN3CCOCC3)cc2)cc(C(=O)NCc2c(C)cc(C)[nH]c2=O)c1C)C1CCOCC1 + CC(CO)NC(=O)c1cc(-c2ccc(Cl)cc2)nn(-c2cnn(C)c2)c1=O")
107
>>> number("O=C(C=Cn1cnc(-c2cc(C(F)(F)F)cc(C(F)(F)F)c2)n1)NNc1cnccn1 + CC(CO)NC(=O)c1cc(-c2ccc(Cl)cc2)nn(-c2cnn(C)c2)c1=O")
55.1
>>> number("CC(C)CC(NC(=O)C(Cc1ccccc1)NC(=O)c1cnccn1)B(O)O (stereo unspecified) + Cc1cncc(-c2nc(NCCc3c[nH]c4ccccc34)c3ncn(C(C)C)c3n2)c1")
0.29
>>> number("CCN(c1cc(-c2ccc(CN3CCOCC3)cc2)cc(C(=O)NCc2c(C)cc(C)[nH]c2=O)c1C)C1CCOCC1 + Cc1ccccc1N=Nc1ccc(NC(=O)c2ccnn2C)c(C)c1")
99.7
>>> number("CC(C)CC(NC(=O)C(Cc1ccccc1)NC(=O)c1cnccn1)B(O)O (stereo unspecified) + CC(CO)NC(=O)c1cc(-c2ccc(Cl)cc2)nn(-c2cnn(C)c2)c1=O")
0.39

What measured viability, T/C is associated with CCc1c2c(nc3ccc(O)cc13)-c1cc3c(c(=O)n1C2)COC(=O)[C@]3(O)CC + CC(CO)NC(=O)c1cc(-c2ccc(Cl)cc2)nn(-c2cnn(C)c2)c1=O on Hs578T complex spheroid growth, percent test/control? 43.5
